Values from patent US8846601B2

Target: hMC1-R (Homo sapiens (Human), UniProt Q01726)
Sequence (Q01726 whole entry): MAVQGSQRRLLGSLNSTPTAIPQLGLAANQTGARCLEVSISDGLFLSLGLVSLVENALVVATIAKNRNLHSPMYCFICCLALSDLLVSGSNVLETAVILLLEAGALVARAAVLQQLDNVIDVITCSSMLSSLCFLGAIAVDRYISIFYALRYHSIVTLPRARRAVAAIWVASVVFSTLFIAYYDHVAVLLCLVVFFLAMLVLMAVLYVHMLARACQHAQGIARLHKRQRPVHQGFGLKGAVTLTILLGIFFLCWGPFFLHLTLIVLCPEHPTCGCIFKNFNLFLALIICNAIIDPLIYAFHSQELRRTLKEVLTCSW
Test: Competitive inhibition binding assay, human recombinant MC1-R
Peptide text beside a SMILES is read from it.
value_kind: pKi
pKi here is simply -log10 of the concentration when that concentration is written in mol/L.

Using the record for CC(=O)N[C@@H](CCCNC(=N)N)C(=O)N[C@H]1CCCCNC(=O)C[C@@H](C(N)=O)NC(=O)[C@H](Cc2c[nH]c3ccccc23)NC(=O)[C@H](CCCNC(=N)N)NC(=O)[C@@H](Cc2ccccc2)NC(=O)[C@H](CC(N)=O)NC1=O [compound 155] (HELM PEPTIDE1{[ac].R.K.N.[dF].R.W.D.[am]}$PEPTIDE1,PEPTIDE1,3:R3-8:R3$$$V2.0) , state its measured pKi.
6.62

Using the record for CC(=O)N[C@@H](CCCNC(=N)N)C(=O)N[C@H]1CCCC(=O)NCC[C@@H](C(N)=O)NC(=O)[C@H](Cc2c[nH]c3ccccc23)NC(=O)[C@H](CCCNC(=N)N)NC(=O)[C@@H](Cc2ccccc2)NC(=O)[C@H](CC(N)=O)NC1=O [compound 160] (HELM PEPTIDE1{[ac].R.[O=C([C@H](CCCC(=O)[*:3])N[*:1])[*:2]].N.[dF].R.W.[Dab].[am]}$PEPTIDE1,PEPTIDE1,3:R3-8:R3$$$V2.0) , state its measured pKi.
6.53

Using the record for CC(=O)N[C@@H](CCCNC(=N)N)C(=O)N[C@H]1CCNC(=O)CCC[C@@H](C(N)=O)NC(=O)[C@H](Cc2c[nH]c3ccccc23)NC(=O)[C@H](CCCNC(=N)N)NC(=O)[C@@H](Cc2ccccc2)NC(=O)[C@H](CCC(N)=O)NC1=O [compound 159] , state its measured pKi.
6.88

Using the record for CC(=O)N[C@H](CCCNC(=N)N)C(=O)N[C@H]1CCCNC(=O)CC[C@@H](C(N)=O)NC(=O)[C@H](Cc2c[nH]c3ccccc23)NC(=O)[C@H](CCCNC(=N)N)NC(=O)[C@@H](Cc2ccccc2)NC(=O)[C@H](CC(N)=O)NC1=O [compound 156] , state its measured pKi.
6.08

Using the record for CC(=O)N[C@@H](CCCNC(=N)N)C(=O)N[C@H]1CCCCNC(=O)C[C@@H](C(N)=O)NC(=O)[C@H](Cc2ccc3ccccc3c2)NC(=O)[C@H](CCCNC(=N)N)NC(=O)[C@@H](Cc2ccccc2)NC(=O)[C@H](CC(N)=O)NC1=O [compound 162] (HELM PEPTIDE1{[ac].R.K.N.[dF].R.[O=C([C@H](Cc1ccc2ccccc2c1)N[*:1])[*:2]].D.[am]}$PEPTIDE1,PEPTIDE1,3:R3-8:R3$$$V2.0) , state its measured pKi.
6.59

Using the record for CC(=O)N[C@@H](CCCNC(=N)N)C(=O)N[C@H]1CCCNC(=O)CC[C@@H](C(N)=O)NC(=O)[C@H](Cc2c[nH]c3ccccc23)NC(=O)[C@H](CCCNC(=N)N)NC(=O)[C@@H](Cc2ccccc2)NC(=O)[C@H](CC(N)=O)NC1=O [compound 154] , state its measured pKi.
6.16

Using the record for CC(=O)N[C@@H](CCCNC(=N)N)C(=O)N[C@H]1CCC(=O)NCCC[C@@H](C(N)=O)NC(=O)[C@H](Cc2c[nH]c3ccccc23)NC(=O)[C@H](CCCNC(=N)N)NC(=O)[C@@H](Cc2ccccc2)NC(=O)[C@H](CC(N)=O)NC1=O [compound 161] , state its measured pKi.
6.81
